Where these numbers come from: ChEMBL document CHEMBL1127627

System: L1210
procedure-text: Tested in vitro for inhibition after 48 hr exposure against murine leukemia cell line L1210 by experiment 1
Type: functional, cell-based
study-conditions: Mus musculus, L1210, 48 h
Lab note: cut-off is 7 µM. Strictly less in IC50 is t. Exactly 7 µM or more is f.

// query Take the molecule "COc1ccc(Cn2nc3c(c2C)N=C[C@@H]2CCCN2C3=O)cc1" and say whether its IC50 is less than 7 µM.
// result f

* * *

Please respond with reported RI for every item in the list.
procedure-text: Resistance index as the ratio of IC50 against LoVo/Dx to that of LoVo
Format: functional
Give bare numbers.

CC(C)c1c2c(nn1Cc1ccccc1)C(=O)N1CCC[C@H]1C=N2
0.2
COc1cccc2c1C(=O)c1c(O)c3c(c(O)c1C2=O)C[C@@](O)(C(=O)CO)C[C@@H]3O[C@H]1C[C@H](N)[C@H](O)[C@H](C)O1
133
COC(=O)c1nn(C)c2c1N=C[C@@H]1CCCN1C2=O
1.12
C/C=C1/CC2C(OC)Nc3cc(OC)c(OC)cc3C(=O)N2C1 (centres undefined)
0.5
Cc1c2c(nn1Cc1ccccc1)C(=O)N1CCC[C@H]1C=N2
0.5
N[C@@H](Cc1ccc(N(CCCl)CCCl)cc1)C(=O)O
1.18
Cc1c2c(nn1C)C(=O)N1CCC[C@H]1C=N2
1.2
Cc1nn(Cc2ccccc2)c2c1N=C[C@@H]1CCCN1C2=O
0.8

Let us examine a further case.
// query Complete the entry with RI for "Cc1nn(C)c2c1N=C[C@@H]1CCCN1C2=O"
// result 0.9

* * *

Test system: L1210
procedure-text: Tested in vitro for inhibition after 48 hr exposure against murine leukemia cell line L1210 by experiment 2
Format: functional, cell-based
study-conditions: Mus musculus, L1210, 48 h
Please respond with reported pIC50 for every item in the list.
Give bare numbers, as −log10 of the molar value.

# count of solved cases: 3
COc1ccc(Cn2nc3c(c2C)N=C[C@@H]2CCCN2C3=O)cc1
4.96
CCn1nc(C)c2c1C(=O)N1CCC[C@H]1C=N2
4.16
CCn1nc2c(c1C)N=C[C@@H]1CCCN1C2=O
5.22

Go through the items and report each one's pIC50.
1. Cc1c2c(nn1Cc1ccc(Cl)cc1)C(=O)N1CCC[C@H]1C=N2
2. COC(=O)c1c2c(nn1C)C(=O)N1CCC[C@H]1C=N2
3. Cc1ccc(Cn2nc3c(c2C)N=C[C@@H]2CCCN2C3=O)cc1C

// result
1: 6.10; 2: 4.39; 3: 5.30

* * *

Please respond with reported pIC50 for every item in the list.
Tested on: L1210
procedure-text: Tested in vitro for inhibition after 48 hr exposure against murine leukemia cell line L1210/L-PAM resistant to melphalan (L-PAM) by experiment 1.
Format: functional, cell-based
study-conditions: Mus musculus, L1210, 48 h
Answers are plain numbers, as −log10 of the molar value.

# count of solved cases: 2
Cc1c2c(nn1Cc1ccc(Cl)cc1)C(=O)N1CCC[C@H]1C=N2
6.80
Cc1ccc(Cn2nc3c(c2C)N=C[C@@H]2CCCN2C3=O)cc1C
5.10

Let us examine a further case.
// query Complete the entry with pIC50 for "CCn1nc(C)c2c1C(=O)N1CCC[C@H]1C=N2"
// result 4.00

* * *

Test system: L1210
procedure-text: Tested in vitro for inhibition after 48 hr exposure against murine leukemia cell line L1210/L-PAM resistant to melphalan (L-PAM)by experiment 2.
Assay type: functional, cell-based
study-conditions: Mus musculus, L1210, 48 h
observation-type: pIC50
One number for each entry, as −log10 of the molar value.

// query Complete the entry with pIC50 for "COc1ccc(Cn2nc3c(c2C)N=C[C@@H]2CCCN2C3=O)cc1"
// result 5.22

* * *

Tested on: L1210
procedure-text: tested in vitro for inhibition after 48 hr exposure against murine leukemia cell line L1210/L-PAM resistant to melphalan (L-PAM by experiment 1.
Assay type: functional, cell-based
study-conditions: Mus musculus, L1210, 48 h
observation-type: pIC50
Answers are plain numbers, as −log10 of the molar value.

// query Complete the entry with pIC50 for "COC(=O)c1c2c(nn1C)C(=O)N1CCC[C@H]1C=N2"
// result 4.16

* * *

Please respond with reported log10(IC50) for every item in the list.
Test system: L1210
procedure-text: Tested in vitro for inhibition after 48 hr exposure against murine leukemia cell line L1210 by experiment 1
Assay type: functional, cell-based
study-conditions: Mus musculus, L1210, 48 h
Values below are the log10 of the recorded IC50, with µM as the unit.

# count of solved cases: 4
Cc1ccc(Cn2nc3c(c2C)N=C[C@@H]2CCCN2C3=O)cc1C
0.60
CCn1nc2c(c1C)N=C[C@@H]1CCCN1C2=O
0.85
CCn1nc(C)c2c1C(=O)N1CCC[C@H]1C=N2
1.60
COC(=O)c1c2c(nn1C)C(=O)N1CCC[C@H]1C=N2
1.49

Let us examine a further case.
// query # return log10(IC50) for "Cc1c2c(nn1Cc1ccc(Cl)cc1)C(=O)N1CCC[C@H]1C=N2" , test system: L1210
// result -0.30
